Data provenance: patent US7314958B2

chromatographic logP reference
# Assay comment: logP determination by HPLC, reversed-phase column (C 18), acidic range
# Format: physicochemical
# Reported conditions: pH 2.3, 0.1% aqueous phosphoric acid/acetonitrile, 43° C.
// no unit string in output, number only

// known answers, use as guide
# Compound, chromatographic logP
rows = [
    ("CC(CC(C)(C)C)c1ccccc1NC(=O)c1ccccc1Br (stereo not drawn) [Example 8]", 4.29),
    ("CCC(C)(C)CC(C)c1ccccc1NC(=O)c1ccccc1Br (stereo not drawn) [Example 13]", 4.63),
    ("CC(C)CC(C)c1ccccc1NC(=O)c1ccccc1C(F)(F)F (stereo not drawn) [Example 2]", 4.09),
    ("CCC(C)(C)CC(C)c1ccccc1NC(=O)c1ccccc1I (stereo not drawn) [Example 10]", 4.71),
    ("CC(CC(C)(C)C)c1ccccc1NC(=O)c1ccccc1I (stereo not drawn) [Example 9]", 4.4),
    ("CC(C)CC(C)c1ccccc1NC(=O)c1ccccc1Br (stereo not drawn) [Example 5]", 4.01),
    ("CC(CC(C)(C)C)c1ccccc1NC(=O)c1ccccc1Cl (stereo not drawn) [Example 7]", 4.25),
    ("CC(C)CC(C)c1ccccc1NC(=O)c1ccccc1Cl (stereo not drawn) [Example 4]", 3.98),
]

-- ask // chromatographic logP lookup, key: CC(CC(C)(C)C)c1ccccc1NC(=O)c1ccccc1C(F)(F)F (stereo not drawn) [Example 6]
-- reply 4.36

-- ask Cool, now CCC(C)(C)CC(C)c1ccccc1NC(=O)c1ccccc1Cl (stereo not drawn) [Example 12]
-- reply 4.6

-- ask CC(C)CC(C)c1ccccc1NC(=O)c1ccccc1I (stereo not drawn) [Example 3] , same question.
-- reply 4.12

-- ask Also, CCC(C)(C)CC(C)c1ccccc1NC(=O)c1ccccc1C(F)(F)F (stereo not drawn) [Example 11] please.
-- reply 4.68
